Taken from PubChem BioAssay (NCI).

Tested on: NCI-H23 lung
Experiment: NCI-60 one-dose screen, 48 h (100 = growth as untreated, 0 = no growth, -100 = all killed)
Details: 10 µM unless noted
The panel holds about 83,000 compounds, 20% with a hit somewhere; the sample as a whole holds those more often.
Measured growth by item
Kindly answer with a numeric value in %, unit omitted.

Use the examples below as a reference point.
compound: COc1ccc(-c2nnc(SCc3ccc(O)c4ncccc34)o2)cc1
property measured: growth
number: 38.2

compound: N/C(=N\c1nc2c(Cl)cccc2s1)C(Cl)(Cl)Cl
property measured: growth
number: 93.2

Inquiry: Annotate the compound `O=C(CN1CCN(c2cc(=O)n(-c3ccccc3)c3ccccc23)CC1)Nc1ccc([N+](=O)[O-])cc1` with its measured growth.
Reply text: 82.5

Inquiry: Consider the compound CS(=O)c1nccc(-c2c(-c3ccc(F)c(OCc4ccccc4)c3)nc3sccn23)n1 (stereo unspecified) . State its measured growth.
Reply text: 88.2

Inquiry: Tell us which growth value is on record for `Cc1ccc(/C=C/CC(=O)Nc2ccc(C(=O)Nc3ccc(F)cc3N)nc2)cn1`
Reply text: 45.7

Inquiry: Query growth for `COc1ccc(NC(=O)[C@H](C)NC(=O)OC(C)(C)C)cc1C(=O)Nc1cccc(-c2cc(=O)c3c(OC)c(OC)c(OC)cc3o2)c1`
Reply text: -24.8

Inquiry: Answer with reported growth of `COc1ccc2c(c1)c(-c1nn3c(=O)cc(-c4ccccc4)nc3s1)cn2C`
Reply text: 63

====

Test system: PC-3 prostate
Test: NCI-60 one-dose screen, 48 h (100 = growth as untreated, 0 = no growth, -100 = all killed)
Details: 10 µM unless noted
This is part of a sample that, as a whole, favours compounds with a hit. Of some 83,000 tested, about 20% had one in any assay.
property measured: growth (%)
Please state the figure in %; there is no need to write the unit.

compound: O=C(CCCCCCN1CC(=O)N2[C@@H](c3ccccc3)c3[nH]c4ccccc4c3C[C@H]2C1=O)NO
growth [%]: 59.6

Inquiry: Recall and state the measured growth for `O=C(Nc1ccccc1)Nc1nc2ccc([N+](=O)[O-])cc2s1` .
Reply text: 4

Inquiry: Give the reported value of growth for this record: CC1COc2c(N3CCN(C)CC3)c(F)cc3c(=O)c(C(=O)N/N=C/c4cc[nH]c4)cn1c23 (centres undefined)
Reply text: 27.9

Inquiry: Provide only the value of recorded growth for `C=C(C)[C@@H]1CC[C@]2(C)[C@H](CC=C3[C@@H]4CC(C)(C)CC[C@]4(C(=O)NCC#CCN4CCN(C)CC4)CC[C@]32C)[C@@]1(C)CCC#N`
Reply text: 37.3

Inquiry: Read the entry CCOC(=O)C1=C(C)N=C2Sc3ccccc3N2C1c1ccccc1 (centres undefined) and write its reported growth.
Reply text: 78.2

====

System: HCC-2998 colon
Test: NCI-60 one-dose screen, 48 h
Conditions: 10 µM unless noted
About 83,000 compounds went through this panel and 20% of them were active in at least one assay; those are over-represented in the sample as a whole. Calls of active or inactive are those of the source. How the source made its calls: active means growth percent below 10; inactive means the rest.
Please reply with one of these outcomes: y (active), n (inactive)

Solved entries (count: 4):
compound: Cc1cccc(NC(c2cc3cccc4ccc5cccc2c5c43)c2nnnn2C(C)(C)C)c1C (stereo not given)
experimental target: HCC-2998 colon
qualitative label: n
//
compound: Cc1ccc(-n2cc(/C=C/C(=O)c3ccc(S(C)(=O)=O)cc3)c(-c3ccc(S(C)(=O)=O)cc3)n2)cc1
experimental target: HCC-2998 colon
qualitative label: n
//
compound: CC(=O)Nc1ccc(NC(=O)Nc2cccc(-c3nc(-c4ccc(NC(=O)c5cccnc5)cc4Cl)no3)c2)cc1C(F)(F)F
experimental target: HCC-2998 colon
qualitative label: y
//
compound: Cn1c2ccccc2c2c3c(c4c5ccc(Br)cc5oc4c21)C(=O)N(O)C3=O
experimental target: HCC-2998 colon
qualitative label: n

Inquiry: Called result for `O=C(CSc1ccc(-c2nc3ccccc3[nH]2)cn1)N1CCN(c2ccccc2F)CC1`
Reply text: n
